# protocol-description: in vivo
# Parameters: species or system Balb/c nu/nu mice
# conditions-used: female, Balb/c nu/nu, mouse, iv, 1 MBq, total radioactivity, Tumor to organ ratio, Blood
# Description: Organ distribution studies were performed in 9-week-old female Balb/c nu/nu mice, carrying subcutaneously transplanted SKRC 52 tumors. Animals were obtained from Charles River WIGA and housed in VentiRacks (BioZone Global). […] Tumor, blood and selected tissues (heart, spleen, liver, kidney, muscle, intestinum and brain) were removed, drained of blood, weighed and the radioactivity was measured in a γ-counter (LB 951G; Berthold Technologies). […]
Peptide text beside a SMILES is read from it.
outcome-measure: tissue to tissue ratio at 0.25 h
Answer as a number with no unit attached.

Kindly note the recorded tissue to tissue ratio at 0.25 h for CC(C)C[C@H](NC(=O)[C@@H]1CCCN1C(=O)[C@@H](NC(=O)[C@H](Cc1c[nH]cn1)NC(=O)[C@@H](N)CC(N)=O)C(C)C)C(=O)N[C@@H](CO)C(=O)N1CCC[C@H]1C(=O)N[C@H](Cc1ccc(O)c(I)c1)C(N)=O [^131I-CaIX-P1-4-10] (HELM PEPTIDE1{N.H.V.P.L.S.P.[O=C([C@@H](Cc1ccc(O)c(I)c1)N[*:1])[*:2]].[am]}$$$$V2.0; N-terminus assumed) , which is 0.63

----------
# protocol-description: in vivo
# Design: species or system Balb/c nu/nu mice
# conditions-used: female, Balb/c nu/nu, mouse, iv, 1 MBq, total radioactivity, Tumor to organ ratio, Heart
# Experimental: Organ distribution studies were performed in 9-week-old female Balb/c nu/nu mice, carrying subcutaneously transplanted SKRC 52 tumors. Animals were obtained from Charles River WIGA and housed in VentiRacks (BioZone Global). […] Tumor, blood and selected tissues (heart, spleen, liver, kidney, muscle, intestinum and brain) were removed, drained of blood, weighed and the radioactivity was measured in a γ-counter (LB 951G; Berthold Technologies). […]
Peptide text beside a SMILES is read from it.
outcome-measure: tissue to tissue ratio at 4 h
Answer as a number with no unit attached.

Kindly note the recorded tissue to tissue ratio at 4 h for CC(C)C[C@H](NC(=O)[C@@H]1CCCN1C(=O)[C@@H](NC(=O)[C@H](Cc1c[nH]cn1)NC(=O)[C@@H](N)CC(N)=O)C(C)C)C(=O)N[C@@H](CO)C(=O)N1CCC[C@H]1C(=O)N[C@H](Cc1ccc(O)c(I)c1)C(N)=O [^131I-CaIX-P1-4-10] (HELM PEPTIDE1{N.H.V.P.L.S.P.[O=C([C@@H](Cc1ccc(O)c(I)c1)N[*:1])[*:2]].[am]}$$$$V2.0; N-terminus assumed) , which is 1.84

----------
# protocol-description: in vivo
# Parameters: species or system Balb/c nu/nu mice
# conditions-used: female, Balb/c nu/nu, mouse, iv, 1 MBq, total radioactivity, Tumor to organ ratio, Heart
# Description: Organ distribution studies were performed in 9-week-old female Balb/c nu/nu mice, carrying subcutaneously transplanted SKRC 52 tumors. Animals were obtained from Charles River WIGA and housed in VentiRacks (BioZone Global). […] Tumor, blood and selected tissues (heart, spleen, liver, kidney, muscle, intestinum and brain) were removed, drained of blood, weighed and the radioactivity was measured in a γ-counter (LB 951G; Berthold Technologies). […]
Peptide text beside a SMILES is read from it.
outcome-measure: tissue to tissue ratio at 0.25 h
Answer as a number with no unit attached.

Kindly note the recorded tissue to tissue ratio at 0.25 h for CC(C)C[C@H](NC(=O)[C@@H]1CCCN1C(=O)[C@@H](NC(=O)[C@H](Cc1c[nH]cn1)NC(=O)[C@@H](N)CC(N)=O)C(C)C)C(=O)N[C@@H](CO)C(=O)N1CCC[C@H]1C(=O)N[C@H](Cc1ccc(O)c(I)c1)C(N)=O [^131I-CaIX-P1-4-10] (HELM PEPTIDE1{N.H.V.P.L.S.P.[O=C([C@@H](Cc1ccc(O)c(I)c1)N[*:1])[*:2]].[am]}$$$$V2.0; N-terminus assumed) , which is 1.63
